Exercise: for every item that follows, state its recorded Inhibition.
test system: Staphylococcus aureus; test: Antibacterial activity against Staphylococcus aureus MRSA ATCC 43300 (CO-ADD:GP_020); MIC in CAMBH media using NBS plates, by Resazurin F(560/590); assay type: functional; settings: Concentration 20 uM, ASSAY_TEST Inhibition of Bacterial Growth, detection method Resazurin, Fluorescence (ex560/em590), MEDIA CAMHB, plate type 384well, CORNING #3640, time 18 hr
All answers are understood in %, so give the number only.

Consider the compound `CCOC(=O)c1c(O)cc(C)nc1O` and give its measured Inhibition.
3.86

Next compound up: `CCOC(=O)c1[nH]c(C(=O)O)c(OC(=O)CC)c1C`
3.4

Next compound: `Cc1cc(O)c2cc(C(=O)c3ccccc3)ccc2n1`
13.49

Also `Cc1cc(-c2ccc(N3C(=O)CC4(CCCC4)C3=O)c(C)c2)ccc1N1C(=O)CC2(CCCC2)C1=O` ?
2.65

Item: `CCOC(=O)c1[nH]c(CO)c(C(=O)OCC)c1C`
12.97

Follow-up item: `O=S1(=O)CSCS(=O)(=O)C1`
-12.69

How about `Clc1nc2nc3n(c2nc1Cl)CCC3` ?
9.08

Likewise for CN1CCC(=C(c2ccc(Cl)cc2)c2ccccn2)CC1.O=C(O)/C=C\C(=O)O [CYCLIRAMINE MALEATE] ?
6.43

Lookup `COC(=O)c1c(-c2ccccc2)[nH]c(-c2nccc3ccccc23)c1C(=O)OC`
3.54

Likewise for `CNC(=O)Nc1ccc(S(N)(=O)=O)cc1` ?
-4.03

Follow-up entry: `CSc1cccc(NC(=O)Nc2ccccc2C(N)=O)c1`
1.7

Another: `Cc1nc(O)c2c3c(sc2n1)CCCC3`
1.78

====

Give measured Inhibition for each item. Keep answers brief.
system: Escherichia coli; assay: Antibacterial activity against Escherichia coli ATCC 25922 (CO-ADD:GN_001); MIC in CAMBH media using NBS plates, by Resazurin F(560/590); assay type: functional; conditions: Concentration 20 uM, ASSAY_TEST Inhibition of Bacterial Growth, detection method Resazurin, Fluorescence (ex560/em590), MEDIA CAMHB, plate type 384well, CORNING #3640, time 18 hr
Report the value in % with no unit label.

Looking for the measured Inhibition of `O=C(Nc1cccc(Cl)c1)Nc1nccs1` , can you help?
8.66

Lookup `C[C@]12CC[C@@H]3c4ccc(OCC(=O)O)cc4CC[C@H]3[C@@H]1CCC2=O`
9.71

Same again, this time with `O=[N+]([O-])c1c(N2CCN(CCO)CC2)nc2ccccn12`
6.29

Same for `Nc1n[nH]c(Nc2ccccc2)n1`
12.19

Another compound: `Cc1cc(C)n(C(=N)NC(=O)c2ccc([N+](=O)[O-])cc2)n1`
-7.33

Same for C=CCNC(=O)C1COc2ccccc2O1 (stereo not given)
0.51

And `Cn1nc(N)c2ncc(C(Cl)(Cl)Cl)nc21` ?
5.5

And what about the compound `NS(=O)(=O)c1ccc(NC(=S)NC(=O)c2ccco2)cc1` ?
10.07

Entry `COC(=O)c1ccccc1NCCO` please
10.44

Subsequent entry: `CCOC(=O)Nc1ccc(C(=O)/C=C/c2ccccc2)cc1`
-2.1

Next record, please: `Cn1ncc2c(Nc3ccc([N+](=O)[O-])cc3)nc(Cl)nc21`
-14.4

Please do the same for O=c1c(O)cccc2cc(O)c(O)c(O)c12 [PURPUROGALLIN] as well.
13.14

Same read-out for `CCOc1nc(OCC)c2cnn(C)c2n1` ?
5.79

# repeat for N#Cc1ccc(NC2c3ccccc3CC2O)cc1 (stereo not given)
-15.24

Item: `CC(=O)NC1=C/C(=C\[N+](=O)[O-])C=C1O`
10.35

c1ccc(-c2ccc3c(c2)NC(C2Nc4cc(-c5ccccc5)ccc4O2)O3)cc1 (stereo not given) , same question.
2.77

`CCCCCCCCCCCCC(NC(C)=O)(C(=O)OCC)C(=O)OCC` , same question.
5.2

# iterate: `CCC/C(C)=C/c1ccc(CC)cn1`
-16.08

// next record `CCc1cccc2[nH]c3cc([N+](=O)[O-])ccc3c12`
2.96

Moving on to the next compound: `O=C(O)/C=C/C(=O)Nc1cccc2cccnc12`
28.31

Another compound to look at: `CCOC(=O)c1c(C)c(C(=O)OCC)n(C)c1C`
-8.3

# repeat for `O=c1nc(Nc2cccc(Cl)c2)oc2cc(Cl)oc(=O)c12`
2.7

What do you have for `Cc1nc([N+](=O)[O-])cn1-c1nc2ccccn2c1[N+](=O)[O-]` ?
12.78

Try `Nc1ccc(C(=O)Nc2ccc(NC(=O)c3ccco3)c(O)c2)cc1` next.
0.6

Same question, `O=C(O)c1cc(O)ccc1/N=N/c1ccccc1` this time
1.52

====

test system: Escherichia coli; test: Antibacterial activity against Escherichia coli ATCC 25922 (CO-ADD:GN_001); MIC in CAMBH media using NBS plates, by Resazurin F(560/590); type: functional; details: Concentration 20 uM, ASSAY_TEST Inhibition of Bacterial Growth, detection method Resazurin, Fluorescence (ex560/em590), MEDIA CAMHB, plate type 384well, CORNING #3640, time 18 hr
observed-property: Inhibition (%)
The figure you give is taken to be in %; do not add the unit.

Consider the compound CC(=O)NCC(=O)O.CN(C)CCC1c2ccc(Cl)cc2CCc2cccnc21 (configuration not stated) [CLOSIRAMINE ACETURATE] and give its measured Inhibition.
19.15

Okay, and `Cn1c(C(=O)c2ccncc2)cc2ccccc21` ?
0.36

Do the same for `CN(C)C(=S)/N=c1\ssc(=S)n1Cc1ccco1` please
0.6

And CN1C(=O)CC2(C)C1=CCc1scnc12 (configuration not stated) ?
0.52

# repeat for `Brc1csc2ncccc12`
-1.37

`Cc1ccc(NC(=O)Nc2cccnc2)cc1NC(=O)Nc1cccnc1` , same question.
5.1

Follow-up item: `CN(C(=O)c1ccncc1)c1ccccc1`
16.42

Continue with `Nc1nc(N)c(/C=N/c2ccc(Br)cc2)c(Nc2ccc(Br)cc2)n1`
5.75

Do the same for Nc1ncnc2c1ncn2C1C=C(CO)C(O)C1O (configuration not stated) please
9.33

Same again, this time with `Nc1ccc2c(c1)N=[N+]([O-])c1cc(N)ccc1C2`
10.77

What do you have for `Cl/N=C1/C=CC=C/C1=N/Cl` ?
4.05

Same question for `CO/N=C1/C=C(C)C(=O)C(C)=C1C` please.
14.83

Try COc1ccccc1C1OC2=Nc3cc([N+](=O)[O-])ccc3NC2=C1O (configuration not stated) next.
2.79

Next record, please: `Nc1n[nH]c(-c2ccccc2)n1`
16.83

Check `Nc1n[nH]c(CO)n1.O=C(O)CO` too.
3.45

Then this compound: `CCOC(=O)c1ccc(NC(=O)Oc2cc(C)c(Cl)cc2C(C)C)cc1`
4.16

Item: `N=C(N)Nc1ccc(NC(=N)N)cc1`
9.96

And then `CC1=NC2=CC=CC3=NC(C(Cl)(Cl)Cl)=NC(=N1)N23` , what is it?
9.49

What do you have for `CCC(CC)NCCOC(=O)c1ccc([N+](=O)[O-])cc1` ?
5.41

Also need CC(=O)OC1COC(OC(C)=O)CO1 (configuration not stated) , thanks.
-12.48

Lookup `Cc1nc(NC(=N)N(C)C)nc(O)c1C`
5.79

Entry `Cc1c2cnccc2c(C)c2c1c1ccccc1n2CCOC(=O)c1ccccc1` please
4.49

For `Cc1c(C#N)c2n(c1C)CCCC(=O)N2` then?
19.57

Thanks! And Cn1c2c(c(=O)n(C)c1=O)NC1(N2)C(=O)Nc2ccccc21 (configuration not stated) ?
2.31

Thanks! And Cc1cc(=O)[nH]/c(=N/N=C2/CCCCC2C)[nH]1 (configuration not stated) ?
10

Further, for `O=C(Nc1ccccc1)Oc1cccnc1O` ?
-1.58

# iterate: `COc1ccc(/C(C#N)=C/c2cccnc2)cc1`
11.08

====

tested on: Acinetobacter baumannii; test: Antibacterial activity against Acinetobacter baumannii ATCC 19606 (CO-ADD:GN_034); MIC in CAMBH media using NBS plates, by Resazurin F(560/590); type: functional; conditions: Concentration 20 uM, ASSAY_TEST Inhibition of Bacterial Growth, detection method Resazurin, Fluorescence (ex560/em590), MEDIA CAMHB, plate type 384well, CORNING #3640, time 18 hr
observed-property: Inhibition

Give its Inhibition value. Item: `CCOc1cc2c(Cl)ncnc2c(OCC)c1OCC`
-8.17%

// repeat for `CSc1ccc(NC(=O)Nc2cc(C)ccn2)cc1` and report
-16.85%

Now consider `CC(C)N(C(=O)c1cccc([N+](=O)[O-])c1)C(C)C` and answer again.
-13.76%

Would you kindly repeat that for `C=CCN(CC=C)C(=O)Nc1cc(OC)ccc1OC` ?
-10.17%

Cool, now `CCCN=C(S)Nc1ccccc1`
-0.42%

What do you get for `O=[N+]([O-])c1ccc(-c2ncc(-c3ccc(Br)cc3)o2)cc1` ?
6.16%

Follow-up entry: CC1=NCC(C)c2ccccc21 (configuration not stated)
-4.26%
